# Tested on: T47D
# assay_info: NCI tumour cell line growth inhibition, 48 h
Calls of active or inactive are those of the source. Rule as the data show it: active = GI50 up to about 1.1 µM and inactive = higher.
quantity_name: GI50

1. C=C[C@@H]1C[C@]2(C(=O)OC)Cc3nc4ccccc4nc3CC(C(=O)OC)=C2O1 = 85.5 µM (inactive)
2. O=C1Oc2ccccc2N/C1=C/C(=O)c1ccc(Cl)cc1 = 47.5 µM (inactive)
3. CC(C)OP(=O)(OC(C)C)C(C(F)(F)F)C(F)(F)F = > 100 µM (inactive)

Tested on T47D, the item Cc1nn(C(=O)c2ccc(Cl)cc2)c2c1C(c1ccc(Cl)cc1)SC(=N)N2 (centres undefined) showed GI50 equal to > 10 µM (inactive)

Tested on T47D, the item Cc1c2c(c(C)c3c4c(oc13)CCCC4)C=NCC2 showed GI50 equal to 35.6 µM (inactive)
